The measurements presented in this section are drawn from patent US20100267561A1.

Tested on: green foxtail (Setaria viridis)
Assay: Test B pre-/postemergence plant response
Format: in vivo
Settings: Preemergence; 8 g ai/ha; scale 0 to 100
readout name: Foxtail, Green plant response rating

- CCCC(=O)Oc1cnn(C)c(=O)c1-n1nc(-c2ccc(Cl)cc2)cc1C [Compound 56]: 65
- CCc1cc(-c2ccc(Cl)cc2)nn1-c1c(O)cnn(C)c1=O [Compound 21]: 100
- Cc1cc(-c2ccc(C(F)(F)F)cc2)nn1-c1c(O)c(C(C)C)nn(C)c1=O [Compound 27]: 0
- Cc1cc(-c2ccc(Cl)cc2)nn1-c1c(OS(=O)(=O)c2ccc(Cl)s2)cnn(C)c1=O [Compound 55]: 0
